// reported T/C per item
System: P388 leukemia ip, CD2F1 mice, survival T/C
Test: NCI In Vivo Anticancer Drug Screen. Data for tumor model P388 Leukemia (intraperitoneal) in CD2F1 (CDF1) mice
Settings: endpoint: median survival time; dose: 400.0 mg/kg/injection; schedule: Q04DX003 (ip); vehicle: saline with Tween-80; higher = longer survival
Inconclusive results and toxic doses are left out.
Experimental readout: T/C

{"Molecule": "O=C(Nc1ccc([N+](=O)[O-])cc1)OCCI", "Result": "92 % of control"}
{"Molecule": "CC(=O)[C@H]1CC[C@H]2[C@@H]3C[C@H](C)C4=CC(=O)CC[C@]4(C)[C@@]3(F)[C@@H](O)C[C@]12C", "Result": "100 % of control"}
{"Molecule": "CCOc1ccc(CO)cc1", "Result": "120 % of control"}
{"Molecule": "Nc1nc(N)c(N=O)c(Nc2ccc(Br)cc2)n1", "Result": "95 % of control"}
{"Molecule": "Nc1ccc([N+](=O)[O-])c(N)n1", "Result": "97 % of control"}
{"Molecule": "CC1=NCCN=C(C)C1N=Nc1ccc(S(=O)(=O)Nc2ncccn2)cc1", "Result": "99 % of control"}
{"Molecule": "NC(CO)C(=O)O (configuration not stated)", "Result": "100 % of control"}
{"Molecule": "Cc1nc2c([N+](=O)[O-])c(Nc3ccc(O)cc3)c([N+](=O)[O-])cc2[nH]1", "Result": "92 % of control"}
{"Molecule": "Cc1cc(NC(=O)Nc2ccc(Cl)cc2)no1", "Result": "100 % of control"}
{"Molecule": "O=C1CNC(=O)c2cc(N=Cc3ccccc3O)ccc2N1", "Result": "104 % of control"}
{"Molecule": "N#CC(=C1C=CC(=NO)C=C1)c1ccc(Cl)cc1", "Result": "117 % of control"}
{"Molecule": "O=[N+]([O-])c1c(-c2ccccc2)csc1SSc1scc(-c2ccccc2)c1[N+](=O)[O-]", "Result": "100 % of control"}

----------
Tested on: P388 leukemia ip, CD2F1 mice, survival T/C
Assay: NCI In Vivo Anticancer Drug Screen. Data for tumor model P388 Leukemia (intraperitoneal) in CD2F1 (CDF1) mice
Details: endpoint: median survival time; dose: 25.0 mg/kg/injection; schedule: Q01DX009 (ip); vehicle: water; higher = longer survival
Toxic doses and inconclusive results are not listed.

{"Molecule": "O=C1c2ccccc2C(=O)N1CC[P+](C1CCCCC1)(C1CCCCC1)C1CCCCC1", "T/C": "118 % of control"}
{"Molecule": "COC(=O)[C@]1(O)Cc2c(O)c3c(c(O)c2[C@@H](OC2CC(N)C(O)C(C)O2)C1)C(=O)c1c(OC)cccc1C3=O (stereo partly drawn)", "T/C": "116 % of control"}
{"Molecule": "Cc1cc(C)c(COCc2cc(C)c(C)cc2C)cc1C", "T/C": "86 % of control"}
{"Molecule": "COc1cc2c(cc1OC)C1c3cc(OC)c(OC)cc3CCN1CC2", "T/C": "107 % of control"}
{"Molecule": "CCN(CC)CCNc1ccc(C)c2sc3ccccc3c(=O)c12", "T/C": "100 % of control"}
{"Molecule": "Cc1cc(C(=O)O)c(C)c(S(=O)(=O)O)c1", "T/C": "97 % of control"}
{"Molecule": "O=NNc1ncc(Cl)cc1Cl", "T/C": "120 % of control"}
{"Molecule": "CC(=O)C1(O)CCCC(OC2CC(N)C(O)C(C)O2)C1 (stereo not drawn)", "T/C": "104 % of control"}

----------
// reported T/C per item
Tested on: P388 leukemia ip, CD2F1 mice, survival T/C
Experiment: NCI In Vivo Anticancer Drug Screen. Data for tumor model P388 Leukemia (intraperitoneal) in CD2F1 (CDF1) mice
Conditions: endpoint: median survival time; dose: 400.0 mg/kg/injection; schedule: Q04DX003 (ip); vehicle: saline; higher = longer survival
Inconclusive results and toxic doses are left out.
Experimental readout: T/C

{"Compound": "O=[N+]([O-])c1c(Nc2ccccc2)nc(-c2ccccc2)nc1Nc1ccccc1", "Measured on": "P388 leukemia ip, CD2F1 mice, survival T/C", "Result": "90 % of control"}
{"Compound": "CN(C)C(C#C[Si](C)(C)C)C1(O)CCCCC1 (configuration not stated)", "Measured on": "P388 leukemia ip, CD2F1 mice, survival T/C", "Result": "103 % of control"}
{"Compound": "BrC1CC2(OCCO2)C(Br)CC12OCCO2 (configuration not stated)", "Measured on": "P388 leukemia ip, CD2F1 mice, survival T/C", "Result": "103 % of control"}
{"Compound": "CCCN(C)C12CN3CN(CN(C3)C1)C2", "Measured on": "P388 leukemia ip, CD2F1 mice, survival T/C", "Result": "100 % of control"}
{"Compound": "CC1(C)COC(=O)/C1=C1\\SC(=O)NC1=O", "Measured on": "P388 leukemia ip, CD2F1 mice, survival T/C", "Result": "102 % of control"}
{"Compound": "OC1CCC(O)C1(Cl)Cl (configuration not stated)", "Measured on": "P388 leukemia ip, CD2F1 mice, survival T/C", "Result": "117 % of control"}
{"Compound": "Cc1cnc(I)[nH]1", "Measured on": "P388 leukemia ip, CD2F1 mice, survival T/C", "Result": "92 % of control"}

----------
Tested on: P388 leukemia ip, CD2F1 mice, survival T/C
Experiment: NCI In Vivo Anticancer Drug Screen. Data for tumor model P388 Leukemia (intraperitoneal) in CD2F1 (CDF1) mice
Conditions: endpoint: median survival time; dose: 240.0 mg/kg/injection; schedule: Q01DX005 (ip); vehicle: saline; higher = longer survival
Method: The antitumor activity of compounds was measured in mice bearing transplantable tumors. Survival or tumor size were measured and the results are expressed as the measurement made in the treated group (T) divided by the measurement made in the vehicle treated control group (C). The tumor model used in this assay is P388 Leukemia (intraperitoneal) in CD2F1 (CDF1) mice
Inconclusive results and toxic doses are left out.

{"Compound": "Nc1nc(-c2ccccc2)cc(-c2cc(-c3ccccc3)nc(N)n2)n1", "Measured on": "P388 leukemia ip, CD2F1 mice, survival T/C", "T/C": "100 % of control"}
{"Compound": "CCN(CC)c1cc(=O)nc2ccccn12", "Measured on": "P388 leukemia ip, CD2F1 mice, survival T/C", "T/C": "106 % of control"}
{"Compound": "O=C(c1c(F)c(F)c(F)c(F)c1F)n1ccnc1", "Measured on": "P388 leukemia ip, CD2F1 mice, survival T/C", "T/C": "87 % of control"}
{"Compound": "NC(N)=N/N=C/C(O)C(O)C(O)C(O)CO (centres undefined)", "Measured on": "P388 leukemia ip, CD2F1 mice, survival T/C", "T/C": "106 % of control"}
{"Compound": "CC(=O)N(c1c(N)[nH]c(=O)n(C)c1=O)C1OC(CO)C(O)C(O)C1O (centres undefined)", "Measured on": "P388 leukemia ip, CD2F1 mice, survival T/C", "T/C": "97 % of control"}
{"Compound": "CC(=O)N1CCCN(C)/C1=N/[N+](=O)[O-]", "Measured on": "P388 leukemia ip, CD2F1 mice, survival T/C", "T/C": "108 % of control"}
{"Compound": "O=C(/C=C/c1ccccc1)C/C(=N/O)C(=O)NO", "Measured on": "P388 leukemia ip, CD2F1 mice, survival T/C", "T/C": "103 % of control"}
{"Compound": "CCN1C(=O)C(C)C(=O)N(C)C1=O (centres undefined)", "Measured on": "P388 leukemia ip, CD2F1 mice, survival T/C", "T/C": "100 % of control"}
{"Compound": "CN1C(=O)C(CCCN=C(N)N)NC1=S (centres undefined)", "Measured on": "P388 leukemia ip, CD2F1 mice, survival T/C", "T/C": "104 % of control"}
{"Compound": "CCN(CC)CC(C)(C)C(=O)/C=C/c1ccc(Cl)c(Cl)c1", "Measured on": "P388 leukemia ip, CD2F1 mice, survival T/C", "T/C": "109 % of control"}
{"Compound": "OCC(O)C(Cl)CCl (centres undefined)", "Measured on": "P388 leukemia ip, CD2F1 mice, survival T/C", "T/C": "86 % of control"}
{"Compound": "CC(=O)OC1C(C(O)CO)OC2OC(C)(C)OC21 (centres undefined)", "Measured on": "P388 leukemia ip, CD2F1 mice, survival T/C", "T/C": "96 % of control"}
{"Compound": "CN(C)CCO", "Measured on": "P388 leukemia ip, CD2F1 mice, survival T/C", "T/C": "118 % of control"}
{"Compound": "NC(=O)C12OC3CC(CC(C3)O1)O2", "Measured on": "P388 leukemia ip, CD2F1 mice, survival T/C", "T/C": "99 % of control"}

Value source: PubChem BioAssay AID330
